# assay_method_text: Pharmacokinetic evaluation following intravenous and oral administration in rats
# Type: in vivo
# condition: male, Sprague-Dawley, 5 mg/kg; rat plasma; oral gavage, 2 mg/mL at 2.5 mL/kg
quantity_kind: Cmax (µg/mL)

Recorded results for 4 compounds are shown here.
| test_smiles | Cmax, µg/mL |
| --- | --- |
| CC(C)(C)/[N+]([O-])=C/c1ccc(C(N)=O)cc1 | 3 |
| CC(C)(C)/[N+]([O-])=C/c1ccc(S(=O)(=O)Nc2cccnc2)cc1 | 27.3 |
| CS(=O)(=O)c1ncccc1/C=[N+](\[O-])Cc1ccccc1 | 1.03 |
| CN(c1ccccc1)S(=O)(=O)c1ccc(/C=[N+](\[O-])C(C)(C)C)cc1 | 0.18 |

(I) CC(C)(C)/[N+]([O-])=C/c1ccc(S(C)(=O)=O)cc1
(II) CCNS(=O)(=O)c1ccc(/C=[N+](\[O-])C(C)(C)C)cc1
(III) CC(C)(C)/[N+]([O-])=C/c1ccc(S(=O)(=O)N2CCCCC2)cc1
Rank descending by Cmax. Please respond with the labels ordered as the question requires. I, II, III

(I) CC(C)(C)/[N+]([O-])=C/c1ccc(S(N)(=O)=O)cc1
(II) CC(C)S(=O)(=O)c1ccc(/C=[N+](\[O-])C(C)(C)C)c(S(=O)(=O)C(C)C)c1
Please choose the item with the lower Cmax value from this pair: I and II Please respond with the label that marks your chosen entry. II
(II: 0.339 µg/mL, I: 0.796 µg/mL)

(A) CCS(=O)(=O)c1ccccc1/C=[N+](\[O-])C(C)(C)C
(B) CC(C)(C)NS(=O)(=O)c1ccc(/C=[N+](\[O-])C2CCCCC2)cc1
(C) CC(C)(C)NS(=O)(=O)c1ccccc1/C=[N+](\[O-])C(C)(C)C
(D) CC(C)(C)/[N+]([O-])=C/c1ccc(S(=O)(=O)C2CCCC2)cc1
(E) CC(C)(C)/[N+]([O-])=C/c1ccccc1S(=O)(=O)N1CCCCC1
Put the items in order so that reported Cmax rises from first to last. Please respond with the labels ordered as the question requires. B, E, D, C, A
